The values you see were collected from the supplement of paper PMC9112550.

Give measured shrunken log2 fold change for each item. Keep answers brief.
System: Escherichia coli TOP10;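 also: peptides expressed intracellularly from a pBAD plasmid library in pooled LB shake-flask culture, induced with 0.3% L-arabinose, DNA abundance read by NGS, three biological replicates, DESeq2 with apeglm shrinkage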
PROCEDURE_TEXT: shrunken log2 fold change of peptide-encoding DNA abundance (4.5 h post-induction vs induction); higher = less antimicrobial activity (less host growth inhibition)
CONDITION_DETAILS: time post-induction: 4.5 h; library: site-saturation at positions 5, 18, 19, 20
Give bare numbers.

RRIRKRPPRLPRPRPRPNQNPRP
1.18

Answer for every listed entry: what is its shrunken log2 fold change? The entries follow.
1. RRIRRRPPRLPRPRPRPEESPRP
2. RRIRHRPPRLPRPRPRPWEEPRP
3. RRIRHRPPRLPRPRPRPVDPPRP
4. RRIRLRPPRLPRPRPRPESMPRP
5. RRIRNRPPRLPRPRPRPNWYPRP

[out]
1: 1.5; 2: -0.0121; 3: -0.0989; 4: 0.191; 5: -0.647

Answer for every listed entry: what is its shrunken log2 fold change? The entries follow.
1. RRIRQRPPRLPRPRPRPSQCPRP
2. RRIRCRPPRLPRPRPRPGVYPRP
3. RRIRRRPPRLPRPRPRPLHPPRP
4. RRIRTRPPRLPRPRPRPERLPRP
5. RRIRFRPPRLPRPRPRPHRPPRP
6. RRIRFRPPRLPRPRPRPCCVPRP
7. RRIRERPPRLPRPRPRPVWHPRP
8. RRIRVRPPRLPRPRPRPQRDPRP

[out]
-0.0618
-0.0723
0.437
-0.0511
-0.157
-0.189
-0.154
-0.171

[in] Please give the measured shrunken log2 fold change for this sequence: RRIRLRPPRLPRPRPRPMLAPRP
[out] 0.369
